# System: Sheep choroid plexus (SCP) cells
# test summary: Toxicity of compounds in control wells without virus, graded morphologically
# Assay type: cell-based
# Parameters: key: 0: no toxicity; 4: total cell lysates
# test settings: 1.0 mM; 0 to 4 scale; Table 1
So I've got a bunch of compounds here, and I need their Toxicity values.
Give bare numbers.

{"smiles repr": "CC(=O)OC[C@H]1NC[C@H](OC(C)=O)[C@@H](OC(C)=O)[C@@H]1OC(C)=O", "value observed": 0}
{"smiles repr": "CC(=O)OC[C@@H]1[C@@H](OC(C)=O)[C@H](OC(C)=O)[C@@H](OC(C)=O)CN1C(=O)c1ccccc1", "value observed": 0}
{"smiles repr": "CCCCCCCCCN1C[C@H](OC(C)=O)[C@@H](OC(C)=O)[C@H](OC(C)=O)[C@H]1COC(C)=O", "value observed": 4}

Data request: Fill blank: measured Toxicity of the compound `CCOC(=O)CC(=O)N1C[C@H](OC(C)=O)[C@@H](OC(C)=O)[C@H](OC(C)=O)[C@H]1COC(C)=O` is ____.
Data returned: 0

----------
# System: Sheep choroid plexus (SCP) cells
# test summary: Toxicity of compounds in control wells without virus, graded morphologically
# Type: cell-based
# test settings: 0.1 mM; graded 0 to 4; Table 2
Could you please report measured Toxicity for the items listed next?
Numbers only.

{"molecule": "CCCC(=O)OC[C@@H]1[C@@H](O)[C@H](OC(=O)CCC)[C@@H](OC(=O)CCC)CN1CCCCCC(F)(F)F", "value observed": 1}
{"molecule": "CCCCN1C[C@H](OC(=O)C(C)(C)C)[C@@H](O)[C@H](OC(=O)C(C)(C)C)[C@H]1COC(=O)C(C)(C)C [Example 50B]", "value observed": 1}
{"molecule": "CCCCN1C[C@H](OC(=O)CCC)[C@@H](OC(=O)CCC)[C@H](O)[C@H]1CO", "value observed": 2}

Now look at this entry.
Data request: Any idea what Toxicity was measured for `CC(C)C(=O)OC[C@@H]1[C@@H](OC(=O)C(C)C)[C@H](OC(=O)C(C)C)[C@@H](OC(=O)C(C)C)CN1C(=O)Cc1ccccc1` ?
Data returned: 1

----------
Exercise: for every item that follows, state its recorded Toxicity.
# System: Sheep choroid plexus (SCP) cells
# test summary: Toxicity of compounds in control wells without virus, graded morphologically
# Assay type: cell-based
# test settings: 0.1 mM; graded 0 to 4; Table 2
Answers are plain numbers.

Answered cases to consult:
{"compound": "CC(=O)OC[C@@H]1[C@@H](OC(C)=O)[C@H](OC(C)=O)[C@@H](OC(C)=O)CN1C(=O)Cc1ccc(Cl)cc1 [Example 40]", "Toxicity": 3}
{"compound": "CCCC(=O)OC[C@@H]1[C@@H](OC(=O)CCC)[C@H](OC(=O)CCC)[C@@H](OC(=O)CCC)CN1CCCCCCCC(F)(F)F [Example 62]", "Toxicity": 1}

We now examine a further compound.
Data request: API: value(readout= Toxicity, system= Sheep choroid plexus (SCP) cells, query= CCCC(=O)OC[C@H]1NC[C@H](OC(=O)CCC)[C@@H](OC(=O)CCC)[C@@H]1OC(=O)CCC [Example 42] )
Data returned: 2

Data origin, for the record: patent US5310745A
